Give PDI for every item shown.
Test: Size and polydispersity index (PDI) of the lipid nanoparticle by dynamic light scattering
Type: physicochemical
Details: LNP encapsulating eGFP mRNA, ionizable lipid/DOPE/cholesterol/DMG-PEG2000 50/10/48.25/1.25 mol%, N/P 12
Answer as a number with no unit attached.

Ask | PDI lookup needed for CCCCCCCCCCCCCCOC(=O)CCCCCCN(CCCO)CCCN(CCCCCCC(=O)OCCCCCCCCCCCCCC)CCCCCCC(=O)OCCCCCCCCCCCCCC , thanks.
Reply | 0.17

Ask | PDI lookup needed for CCCCCCCCCCCCCOC(=O)CCCCCCN(CCO)CCCN(CCCCCCC(=O)OCCCCCCCCCCCCC)CCCCCCC(=O)OCCCCCCCCCCCCC , thanks.
Reply | 0.13

Ask | PDI lookup needed for CCCCCCCCCCCCOC(=O)CCCCCCN(CCO)CCCN(CCCCCCC(=O)OCCCCCCCCCCCC)CCCCCCC(=O)OCCCCCCCCCCCC , thanks.
Reply | 0.26

Ask | PDI lookup needed for CC/C=C\COC(=O)CCCCCCCN(CCO)CCCN(CCCCCCCC(=O)OC/C=C\CC)CCCCCCCC(=O)OC/C=C\CC [Example 10] , thanks.
Reply | 0.14

Ask | PDI lookup needed for CCCCCCCCCCCOC(=O)CCCCCCCN(CCCCCCCC(=O)OCCCCCCCCCCC)CCCN(CCCO)CCCN(CCCCCCCC(=O)OCCCCCCCCCCC)CCCCCCCC(=O)OCCCCCCCCCCC , thanks.
Reply | 0.14

Ask | PDI lookup needed for CCCCCCCCCCCCCOC(=O)CCCCCCN(CCCO)CCCN(CCCCCCC(=O)OCCCCCCCCCCCCC)CCCCCCC(=O)OCCCCCCCCCCCCC , thanks.
Reply | 0.16

Ask | PDI lookup needed for CCCCCCCCCCCCCOC(=O)CCCN(CCO)CCCN(CCCC(=O)OCCCCCCCCCCCCC)CCCC(=O)OCCCCCCCCCCCCC , thanks.
Reply | 0.16

Ask | PDI lookup needed for CCCCCCCCCCCCCOC(=O)CCN(CCO)CCCN(CCC(=O)OCCCCCCCCCCCCC)CCC(=O)OCCCCCCCCCCCCC , thanks.
Reply | 0.11

Ask | PDI lookup needed for CCCCCC/C=C\COC(=O)CCCCCCCCCN(CCO)CCCN(CCCCCCCCCC(=O)OC/C=C\CCCCCC)CCCCCCCCCC(=O)OC/C=C\CCCCCC [Example 15] , thanks.
Reply | 0.20

Ask | PDI lookup needed for CCCCCC/C=C\COC(=O)CCCCCCCCCN(CCO)CCCN(CCCCCCCCCC(=O)OC/C=C\CCCCCC)CCCCCCCCCC(=O)OC/C=C\CCCCCC [Example 92] , thanks.
Reply | 0.28

Ask | PDI lookup needed for CCCCCCCCCCCCCOC(=O)CCCCCCCN(CCCO)CCCN(CCCCCCCC(=O)OCCCCCCCCCCCCC)CCCCCCCC(=O)OCCCCCCCCCCCCC , thanks.
Reply | 0.16

Ask | PDI lookup needed for CCCCCCCCCCCCCCOC(=O)CCCCCN(CCCO)CCCN(CCCCCC(=O)OCCCCCCCCCCCCCC)CCCCCC(=O)OCCCCCCCCCCCCCC , thanks.
Reply | 0.14
